Collected % max activation values appear next to each entry.
# TARGET_SYSTEM: human MC4R receptor (human, UniProt P32245 1-332)
# Sequence (P32245 whole entry): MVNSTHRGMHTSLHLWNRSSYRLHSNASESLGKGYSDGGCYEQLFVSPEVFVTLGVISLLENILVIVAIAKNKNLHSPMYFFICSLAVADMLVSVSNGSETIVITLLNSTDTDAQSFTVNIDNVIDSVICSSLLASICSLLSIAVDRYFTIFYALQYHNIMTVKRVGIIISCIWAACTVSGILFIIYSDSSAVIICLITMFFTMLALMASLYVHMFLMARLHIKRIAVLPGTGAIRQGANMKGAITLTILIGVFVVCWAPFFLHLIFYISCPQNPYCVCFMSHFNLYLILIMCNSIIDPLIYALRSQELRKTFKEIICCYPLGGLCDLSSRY
# PROTOCOL_SUMMARY: cell-based or functional assay
Positions of bridges follow the written chain, without caps; N, C: chain ends. Non-standard residues stand in square brackets, D forms with d. 1Nal = N[C@@H](Cc1cccc2ccccc12)C(=O)O; d1Nal = N[C@H](Cc1cccc2ccccc12)C(=O)O; d2Nal = N[C@H](Cc1ccc2ccccc2c1)C(=O)O; 2Pal = N[C@@H](Cc1ccccn1)C(=O)O; Cit = NC(=O)NCCC[C@H](N)C(=O)O; Nle = CCCC[C@H](N)C(=O)O; Orn = NCCC[C@H](N)C(=O)O; Aib = CC(C)(N)C(=O)O

[
  {
    "BINDER": "Ac-RC[Aib][Orn][dF]RFC-NH2 (disulfide 2-8; SMILES CC(=O)N[C@@H](CCCNC(=N)N)C(=O)N[C@H]1CSSC[C@@H](C(N)=O)NC(=O)[C@H](Cc2ccccc2)NC(=O)[C@H](CCCNC(=N)N)NC(=O)[C@@H](Cc2ccccc2)NC(=O)[C@H](CCCN)NC(=O)C(C)(C)NC1=O) [CTX-1602]",
    "% max activation, %": 97
  },
  {
    "BINDER": "Ac-R[Nle]CR[dF]R[dW]C-NH2 (disulfide 3-8) [CTX-1616]",
    "% max activation, %": 93
  },
  {
    "BINDER": "Ac-R[Nle]CH[1Nal]RWC-NH2 (disulfide 3-8; SMILES CCCC[C@H](NC(=O)[C@H](CCCNC(=N)N)NC(C)=O)C(=O)N[C@H]1CSSC[C@@H](C(N)=O)NC(=O)[C@H](Cc2c[nH]c3ccccc23)NC(=O)[C@H](CCCNC(=N)N)NC(=O)[C@H](Cc2cccc3ccccc23)NC(=O)[C@H](Cc2c[nH]cn2)NC1=O) [CTX-1610]",
    "% max activation, %": 90
  },
  {
    "BINDER": "Ac-RC[dA]R[dF]R[d2Nal]C-NH2 (disulfide 2-8) [CTX-1264]",
    "% max activation, %": 80
  },
  {
    "BINDER": "{CH2CO}-G[Cit][dF]RWC-NH2 (thioether N-6; SMILES N=C(N)NCCC[C@@H]1NC(=O)[C@@H](Cc2ccccc2)NC(=O)[C@H](CCCNC(N)=O)NC(=O)CNC(=O)CSC[C@@H](C(N)=O)NC(=O)[C@H](Cc2c[nH]c3ccccc23)NC1=O) [CTX-1646]",
    "% max activation, %": 103
  },
  {
    "BINDER": "{CH2CO}-GR[dF]RWC-NH2 (thioether N-6; SMILES N=C(N)NCCC[C@@H]1NC(=O)CNC(=O)CSC[C@@H](C(N)=O)NC(=O)[C@H](Cc2c[nH]c3ccccc23)NC(=O)[C@H](CCCNC(=N)N)NC(=O)[C@@H](Cc2ccccc2)NC1=O) [CTX-1645]",
    "% max activation, %": 110
  },
  {
    "BINDER": "Ac-R[Nle]CR[d1Nal]RWC-NH2 (disulfide 3-8; SMILES CCCC[C@H](NC(=O)[C@H](CCCNC(=N)N)NC(C)=O)C(=O)N[C@H]1CSSC[C@@H](C(N)=O)NC(=O)[C@H](Cc2c[nH]c3ccccc23)NC(=O)[C@H](CCCNC(=N)N)NC(=O)[C@@H](Cc2cccc3ccccc23)NC(=O)[C@H](CCCNC(=N)N)NC1=O) [CTX-1611]",
    "% max activation, %": 67
  },
  {
    "BINDER": "{CH2CO}-[dA]R[dF]RWC-NH2 (thioether N-6; SMILES C[C@H]1NC(=O)CSC[C@@H](C(N)=O)NC(=O)[C@H](Cc2c[nH]c3ccccc23)NC(=O)[C@H](CCCNC(=N)N)NC(=O)[C@@H](Cc2ccccc2)NC(=O)[C@H](CCCNC(=N)N)NC1=O) [CTX-1642]",
    "% max activation, %": 107
  },
  {
    "BINDER": "{CH2CO}-[Aib]H[dF]RFC-NH2 (thioether N-6; SMILES CC1(C)NC(=O)CSC[C@@H](C(N)=O)NC(=O)[C@H](Cc2ccccc2)NC(=O)[C@H](CCCNC(=N)N)NC(=O)[C@@H](Cc2ccccc2)NC(=O)[C@H](Cc2c[nH]cn2)NC1=O) [CTX-1650]",
    "% max activation, %": 113
  },
  {
    "BINDER": "{CH2CO}-[Aib]H[dF]RWC-NH2 (thioether N-6; SMILES CC1(C)NC(=O)CSC[C@@H](C(N)=O)NC(=O)[C@H](Cc2c[nH]c3ccccc23)NC(=O)[C@H](CCCNC(=N)N)NC(=O)[C@@H](Cc2ccccc2)NC(=O)[C@H](Cc2c[nH]cn2)NC1=O) [CTX-1647]",
    "% max activation, %": 109
  },
  {
    "BINDER": "Ac-RC[Aib]R[dF]RFC-NH2 (disulfide 2-8) [CTX-1601]",
    "% max activation, %": 97
  },
  {
    "BINDER": "Ac-RC[Aib][2Pal][dF]RFC-NH2 (disulfide 2-8; SMILES CC(=O)N[C@@H](CCCNC(=N)N)C(=O)N[C@H]1CSSC[C@@H](C(N)=O)NC(=O)[C@H](Cc2ccccc2)NC(=O)[C@H](CCCNC(=N)N)NC(=O)[C@@H](Cc2ccccc2)NC(=O)[C@H](Cc2ccccn2)NC(=O)C(C)(C)NC1=O) [CTX-1604]",
    "% max activation, %": 96
  },
  {
    "BINDER": "Ac-C[Aib]R[dF]RWC-NH2 (disulfide 1-7; SMILES CC(=O)N[C@H]1CSSC[C@@H](C(N)=O)NC(=O)[C@H](Cc2c[nH]c3ccccc23)NC(=O)[C@H](CCCNC(=N)N)NC(=O)[C@@H](Cc2ccccc2)NC(=O)[C@H](CCCNC(=N)N)NC(=O)C(C)(C)NC1=O) [CTX-1632]",
    "% max activation, %": 105
  },
  {
    "BINDER": "Ac-RCA[Cit][dF]R[dW]C-NH2 (disulfide 2-8) [CTX-1288]",
    "% max activation, %": 87
  }
]

Provenance of the data: patent US20240391954A1
